# System: wild-type HIV-1 NL4-3
# Test Name: HIV-1 replication in U87MG cells (p24 ELISA)
# Assay type: cell-based
# Assay Context: Human immunodeficiency virus 1, NL43, U-87 MG, 96 h, read-out: REPLICATION @ 3 μM % Inhibition vs. DMSO control
Criterion: inhibition at 3 µM meeting or surpassing 20%. Met: yes (1). Not met: no (0).

These solved cases illustrate the format of a correct answer.
# Compound, Class Label
records = [
    ("COc1cccc(CCc2c(-c3ccc([N+](=O)[O-])cc3)nn(C(=N)N)c2O)c1 [JZ-1-135-1]", "yes (1)"),
    ("NC(=S)n1nc(-c2ccc([N+](=O)[O-])cc2)c(Cc2cccc(Cl)c2)c1O [JZ-1-97-2-1]", "yes (1)"),
    ("NC(=O)n1nc(-c2ccc(F)cc2)c(/N=N/c2cncc(Cl)c2)c1O [JZ-1-106]", "no (0)"),
    ("COc1ccc(-c2n[nH]c(O)c2CCc2cccc(Cl)c2)cc1 [JV-1-59-1]", "yes (1)"),
    ("COc1ccc(-c2nn(C3=NCCN3)c(O)c2CCc2ccc(F)cc2)cc1 [JV-1-74-2]", "yes (1)"),
]

Please tell me: is the compound Oc1[nH]nc(-c2ccc(F)cc2)c1/N=N/c1cncc(Cl)c1 [JZ-1-110-2] at or over 20% in terms of inhibition at 3 µM?
no (0)

Please tell me: is the compound NC(=O)n1nc(-c2ccc(F)cc2)c(/N=N/c2cccnc2)c1O [JZ-1-101] at or over 20% in terms of inhibition at 3 µM?
no (0)

----------
Assign inhibition at 3 µM to each entry below.
# Test system: wild-type HIV-1 NL4-3
# Test Name: HIV-1 replication in U87MG cells (p24 ELISA)
# Type: cell-based
# Assay Context: Human immunodeficiency virus 1, NL43, U-87 MG, 96 h, read-out: REPLICATION @ 3 μM % Inhibition vs. DMSO control
# Procedure: In particular disclosed embodiments, the compound may be used to block Nef-dependent HIV replication and infectivity. […] Virus replication was assessed by p24 ELISA after 4 days (U87MG) or 9 days (CEM-T4). Data are expressed as the mean percent inhibition as compared to control cultures incubated with the carrier solvent (DMSO)±S.E.M. (n=4). […] After 48 hours, relative virus infectivity was assessed as luciferase production in infected cells. […]
Numbers only, in %.

Check out these entries, answers already filled in.
# Smiles Code, Observed Result
records = [
    ("COc1ccc(-c2nn(C(=N)N)c(O)c2CCc2ccc(F)cc2)cc1", 27.8),
    ("NC(=S)n1nc(-c2ccc(F)cc2)c(/N=N/c2cncc(Cl)c2)c1O", 0),
    ("N=C(N)n1nc(-c2ccc([N+](=O)[O-])cc2)c(CCc2cccc(Cl)c2)c1O", 53.2),
    ("O=[N+]([O-])c1ccc(-c2n[nH]c(O)c2Cc2cccc(Cl)c2)cc1", 0),
    ("Oc1c(Cc2ccc(F)cc2)c(-c2ccc(F)cc2)nn1-c1ccccn1", 0),
]

Here are 2 compounds. What values of inhibition at 3 µM were reported for them?
1. Oc1[nH]nc(-c2ccc(F)cc2)c1/N=N/c1cccnc1
2. NC(=S)n1nc(-c2ccc([N+](=O)[O-])cc2)c(/N=N/c2ccc(Cl)cc2)c1O

[0, 43.6]
